meta.source: patent US20210246209A1

Target: T1, recombinant protein of human BTLA extracellular domain (hBTLA-ECD-FC) (human, UniProt Q7Z6A9 31-157, biotin-labeled in the FACS blocking assays (site not stated))
T1 construct: extracellular domain; also called BTLA-Fc; biotin-labeled hBTLA; not shown: Fc of the self-constructed HX1-FC expression plasmid
T1 sequence (looked up): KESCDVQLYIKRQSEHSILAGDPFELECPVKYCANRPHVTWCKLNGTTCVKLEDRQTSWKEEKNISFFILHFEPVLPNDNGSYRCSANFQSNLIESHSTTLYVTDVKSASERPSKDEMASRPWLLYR
Assay: FACS, blocking of biotin-labeled hBTLA binding to hHVEM-293F cells
Measurement type: IC50 (µg/mL)
Numbers only, in µg/mL.

## Task Any idea what its IC50 is? The binder is chimeric antibody ch12 (antibody, human IgG4, V domains shown, T0010 gives only CDR numbers (HCDR 13-15, LCDR 10-12)) VH: EVQLQQSGADLVKPGASVKLSCTASGFNFKHTYAHWVKQRPEQGLEWIGRIDPANGNTKYDPKFQGKATMTADTASNAAFLQLSSLTSEDTAVYYCVADHYGSSLLDYWGQGTSLTVSS VL: EVVMTQTPLTLSVTIGQSASISCKSSQSLLDSDGKTYLNWFLQRPGQSPKRLMHLVSKLDSGVPDRFTGSGSGTDFTLKISGVEAEDLGVYYCWQGTYFPYTFGGGTKLETK
## Result 0.157
